- Assayed Target: Gal(a1-4)Gal(b1-4)GlcNAc(b1-2)Man(a1-3)[Gal(a1-4)Gal(b1-4)GlcNAc(b1-2)Man(a1-6)]Man(b1-4)GlcNAc(b1-4)GlcNAc
- Experimental Details: glycan array binding signal (z-score within array); higher = stronger binding
- Condition Set: glycan notation: IUPAC condensed, linker removed
Only a selection was taken, and the strongest signals are over-represented in it overall.
Measurement Type: glycan array binding signal (z-score)
Field format: numeric only.

Binder | Quantitative Result
MGL6A (Homo sapiens) (protein) MTRTYENFQYLENKVKVQGFKNGPLPLQSLLQRLCSGPCHLLLSLGLGLLLLVIICVVGFQNSKFQRDLVTLRTDFSNFTSNTVAEIQALTSQGSSLEETIASLKAEVEGFKQERQAVHSEMLLRVQQLVQDLKKLTCQVATLNNNGEEASTEGTCCPVNWVEHQDSCYWFSHSGMSWAEAEKYCQLKNAHLVVINSREEQNFVQKYLGSAYTWMGLSDPEGAWKWVDGTDYATGFQNWKPGQPDDWQGHGLGGGEDCAHFHPDGRWNDDVCQRPYHWVCEAGLGQTSQESH | -0.244
GNL (Galanthus nivalis) (protein) MGHHHHHHHHYGTLENGHWLMVGMSIFSKDRTVELRMQDDGKLAIYYNDHCAWQSTAQQVNNAKGAVMQGDGNFCIYDKNGKATWHTNTAAPSGDSHTFVSVQDDGNLVLYKNNGATPIWSSKSNK | 5.71
CD72 ectodomain (Homo sapiens), P21854 (protein) RYLQVSQQLQQTNRVLEVTNSSLRQQLRLKITQLGQSAEDLQGSRRELAQSQEALQVEQRAHQAAEGQLQACQADRQKTKETLQSEEQQRRALEQKLSNMENRLKPFFTCGSADTCCPSGWIMHQKSCFYISLTSKNWQESQKQCETLSSKLATFSEIYPQSHSYYFLNSLLPNGGSGNSYWTGLSSNKDWKLTDDTQRTRTYAQSSKCNKVHKTWSWWTLESESCRSSLPYICEMTAFRFPD | 0.8

## Task Look at this binder and give its reported glycan array binding signal (z-score). CALR truncated at D342 (Homo sapiens) (protein) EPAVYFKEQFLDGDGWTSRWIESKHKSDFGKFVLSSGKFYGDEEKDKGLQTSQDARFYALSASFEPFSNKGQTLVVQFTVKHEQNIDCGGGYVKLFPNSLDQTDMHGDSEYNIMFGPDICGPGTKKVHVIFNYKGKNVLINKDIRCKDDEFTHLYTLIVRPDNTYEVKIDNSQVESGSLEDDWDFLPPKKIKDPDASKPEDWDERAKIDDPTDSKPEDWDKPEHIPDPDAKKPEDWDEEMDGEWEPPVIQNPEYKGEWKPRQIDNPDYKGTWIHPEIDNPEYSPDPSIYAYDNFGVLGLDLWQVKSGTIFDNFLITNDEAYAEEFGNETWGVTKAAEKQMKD
## Result 0.225

## Task Now the binder TIM1 (protein) ADGIQSVKVGGEAGPSVTLPCHYSGAVTSMCWNRGSCSLFTCQNGIVWTNGTHVTYRKDTRYKLLGDLSRRDVSLTIENTAVSDSGVYCCRVEHRGWFNDMKITVSLEIVPPHHHHHH
## Result -0.176

## Task Now the binder PpFlo2 (Pichia pastoris) (protein) MGSSHHHHHHSSGLVPRGSHMDDSGNGDNSDTAYGCDITTNAVDGFDATIYQYNANDLRLIRDPTFMSTGYLGRNVLNKISGVTVPGFNIWNPSSRTATVYGVKNVNYYNMVLELKGYFKADVSGDYKLTLSHIDDSSMLFFGKETAFKCCDAGSIPLNEAPTDYSLFTIKPSNQVNSEVISATQYLEAGKYYPVRIVFVNALERARFDFKLTIPSGAVLDDFQNYIYQFGDLDENSCHE
## Result -0.23

## Task Now the binder Gal 4 (Homo sapiens), Q8K419 (protein) MAYVPAPGYQPTYNPTLPYKRPIPGGLSVGMSVYIQGMAKENMRRFHVNFAVGQDDGADVAFHFNPRFDGWDKVVFNTMQSGQWGKEEKKKSMPFQKGKHFELVFMVMPEHYKVVVNGNSFYEYGHRLPVQMVTHLQVDGDLELQSINFLGGQPAAAPYPGAMTIPAYPAGSPGYNPPQMNTLPVMTGPPVFNPRVPYVGALQGGLTVRRTIIIKGYVLPTARNFVINFKVGSSGDIALHLNPRIGDSVVRNSFMNGSWGAEERKVAYNPFGPGQFFDLSIRCGMDRFKVFANGQHLFDFSHRFQAFQMVDTLEINGDITLSYVQI
## Result -0.194

## Task Now the binder B936 (Bifidobacterium sp) (protein) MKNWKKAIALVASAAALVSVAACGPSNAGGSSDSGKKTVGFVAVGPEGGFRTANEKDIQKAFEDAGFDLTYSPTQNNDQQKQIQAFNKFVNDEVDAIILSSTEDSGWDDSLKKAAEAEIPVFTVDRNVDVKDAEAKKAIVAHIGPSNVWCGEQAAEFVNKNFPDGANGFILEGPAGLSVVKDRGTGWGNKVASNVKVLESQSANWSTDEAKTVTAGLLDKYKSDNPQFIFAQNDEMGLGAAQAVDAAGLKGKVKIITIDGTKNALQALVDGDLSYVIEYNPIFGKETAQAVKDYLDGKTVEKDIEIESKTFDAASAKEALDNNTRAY
## Result 2.19

## Task Now the binder LBL-152 (Laetiporus bicolor), B0D650 (protein) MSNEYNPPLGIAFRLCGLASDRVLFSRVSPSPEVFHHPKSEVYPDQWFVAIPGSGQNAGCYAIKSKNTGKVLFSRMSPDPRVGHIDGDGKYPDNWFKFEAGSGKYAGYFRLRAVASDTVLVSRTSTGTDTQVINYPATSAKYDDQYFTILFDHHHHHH
## Result -0.132

## Task Now the binder GSL-I-B4 (Griffonia simplicifolia) (protein) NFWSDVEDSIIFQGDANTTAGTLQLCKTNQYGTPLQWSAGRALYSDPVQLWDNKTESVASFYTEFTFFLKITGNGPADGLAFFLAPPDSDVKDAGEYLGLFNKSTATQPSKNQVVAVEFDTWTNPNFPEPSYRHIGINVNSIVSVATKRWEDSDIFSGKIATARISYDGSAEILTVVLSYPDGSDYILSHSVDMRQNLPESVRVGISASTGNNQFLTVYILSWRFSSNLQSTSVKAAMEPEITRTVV
## Result 1.52

## Task Now the binder Lb MiSSP8 (Laccaria bicolor) (protein) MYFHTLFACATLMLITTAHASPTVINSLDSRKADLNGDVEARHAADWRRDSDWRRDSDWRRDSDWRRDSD
## Result 10.8
